target: Renin (Homo sapiens, UniProt P00797); experiment: Inhibitory activity against human plasma renin; format: cell-free
Sequence (P00797 whole entry): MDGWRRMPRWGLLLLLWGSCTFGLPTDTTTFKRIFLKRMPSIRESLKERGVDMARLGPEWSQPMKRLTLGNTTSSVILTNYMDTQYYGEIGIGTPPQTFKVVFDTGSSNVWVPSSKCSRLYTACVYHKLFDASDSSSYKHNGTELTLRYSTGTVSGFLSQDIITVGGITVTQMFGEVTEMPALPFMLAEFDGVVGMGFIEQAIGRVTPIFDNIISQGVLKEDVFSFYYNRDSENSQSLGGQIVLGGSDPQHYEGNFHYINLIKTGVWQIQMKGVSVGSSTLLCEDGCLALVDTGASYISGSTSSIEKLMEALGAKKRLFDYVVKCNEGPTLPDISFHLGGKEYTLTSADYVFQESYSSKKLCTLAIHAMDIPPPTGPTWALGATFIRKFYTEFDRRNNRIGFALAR
assay.endpoint: IC50 (nM)

1. CCC(C)CNC(=O)C[C@H](O)C(CC(C)C)NC(=O)C(CCCCNP(=O)(Oc1ccccc1)Oc1ccccc1)NC(=O)C(Cc1cccc2ccccc12)Cc1cccc2ccccc12 (stereo partly drawn) :: 740
2. CCC(C)CNC(=O)C[C@H](O)C(CC(C)C)NC(=O)C(CCCCNC(=NC#N)SC)NC(=O)C(Cc1cccc2ccccc12)Cc1cccc2ccccc12 (stereo partly drawn) :: 19
3. C/N=C(\S)NCCCCC(NC(=O)C(Cc1cccc2ccccc12)Cc1cccc2ccccc12)C(=O)NC(CC(C)C)[C@@H](O)CC(=O)NC(CC(C)C)C(=O)NCc1ccccc1 (stereo partly drawn) :: 60
4. CCC(C)CNC(=O)C[C@H](O)C(CC(C)C)NC(=O)C(CCCC/N=C(/S)NC)NC(=O)C(Cc1cccc2ccccc12)Cc1cccc2ccccc12 (stereo partly drawn) :: 13
5. CCC(C)CNC(=O)C[C@H](O)C(CC(C)C)NC(=O)C(CCCCNS(=O)(=O)c1ccc(C)cc1)NC(=O)C(Cc1cccc2ccccc12)Cc1cccc2ccccc12 (stereo partly drawn) :: 3000
6. NCCC1CN(C(=O)C[C@H](O)C(CC2CCCCC2)NC(=O)C(Cc2c[nH]cn2)NC(=O)C(Cc2ccccc2)NS(=O)(=O)N2CCOCC2)CCO1 (stereo partly drawn) :: 5.4
7. CCC(C)CNC(=O)C[C@H](O)C(CC(C)C)NC(=O)C(CCCCNC(C)=O)NC(=O)C(Cc1cccc2ccccc12)Cc1cccc2ccccc12 (stereo partly drawn) :: 6.2
8. CCC(C)CNC(=O)C[C@H](O)C(CC(C)C)NC(=O)C(CCCCC/N=C(\N)N[N+](=O)[O-])NC(=O)C(Cc1cccc2ccccc12)Cc1cccc2ccccc12 (stereo partly drawn) :: 26
9. CCC(C)CNC(=O)C[C@H](O)C(CC(C)C)NC(=O)C(CCCCNC(=O)NC)NC(=O)C(Cc1cccc2ccccc12)Cc1cccc2ccccc12 (stereo partly drawn) :: 29
10. CC(C)CC(NC(=O)C[C@H](O)C(CC(C)C)NC(=O)C(CCCCNC(=O)OCc1ccccc1)NC(=O)C(Cc1cccc2ccccc12)Cc1cccc2ccccc12)C(=O)NCc1ccccc1 (stereo partly drawn) :: 2900
11. CCC(C)CNC(=O)C[C@H](O)C(CC(C)C)NC(=O)C(CCCCNC(=S)Nc1ccccc1)NC(=O)C(Cc1cccc2ccccc12)Cc1cccc2ccccc12 (stereo partly drawn) :: 58
12. CC(C)CC(NC(=O)C[C@H](O)C(CC(C)C)NC(=O)C(CCCCNC(=N)N[N+](=O)[O-])NC(=O)C(Cc1cccc2ccccc12)Cc1cccc2ccccc12)C(=O)NCc1ccccc1 (stereo partly drawn) :: 15
